Hey, just so you know, these numbers are from patent US20100069341A1.

Target: Cannabinoid CB2 Receptor (Homo sapiens, UniProt P34972)
Construct: expressed in transfected cells; semi-purified membrane pellet
Sequence (P34972 whole entry): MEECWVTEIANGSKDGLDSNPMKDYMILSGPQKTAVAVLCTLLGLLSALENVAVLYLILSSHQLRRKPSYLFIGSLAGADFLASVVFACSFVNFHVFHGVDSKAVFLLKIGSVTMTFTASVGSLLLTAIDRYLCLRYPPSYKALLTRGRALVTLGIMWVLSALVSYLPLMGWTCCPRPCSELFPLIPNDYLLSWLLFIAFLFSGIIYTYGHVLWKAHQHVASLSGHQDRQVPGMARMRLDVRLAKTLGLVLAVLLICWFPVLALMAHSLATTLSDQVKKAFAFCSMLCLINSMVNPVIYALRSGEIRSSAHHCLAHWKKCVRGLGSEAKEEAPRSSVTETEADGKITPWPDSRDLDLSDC
Assay: Binding assay, cannabinoid CB2 receptor ([3H]-CP-55,940 displacement, SK-N-MC cell membranes)
Conditions: test concentration of 0.2 μM; human CB2 in SK-N-MC membranes; read-out: Cannabinoid CB2 Receptor Binding, percent inhibition
Recorded Endpoint: inhibition at 0.2 µM (%)
Answer with a number only, understood to be in %.

Log: Cannabinoid CB2 Receptor (Homo sapiens, UniProt P34972), molecule O=C(NN1CCCC1)c1nn(-c2ccc(Cl)cc2)c2c1COC/C2=C\c1ccc(F)cc1 , inhibition at 0.2 µM = 11

Log: Cannabinoid CB2 Receptor (Homo sapiens, UniProt P34972), molecule C[C@H](NC(=O)c1nn(-c2ccc(Cl)cc2Cl)c2c1COC/C2=C\c1ccc(Cl)o1)C1CCCCC1 , inhibition at 0.2 µM = 10

Log: Cannabinoid CB2 Receptor (Homo sapiens, UniProt P34972), molecule O=C(NN1CC2CCCC2C1)c1nn(-c2ccc(Cl)cc2Cl)c2c1COC/C2=C\c1ccc(Cl)s1 (stereo not shown) , inhibition at 0.2 µM = 0

Log: Cannabinoid CB2 Receptor (Homo sapiens, UniProt P34972), molecule O=C(c1nn(-c2ccc(Cl)cc2)c2c1COC/C2=C\c1ccc(F)cc1)N1CCC[C@@H]1CO , inhibition at 0.2 µM = 14

Log: Cannabinoid CB2 Receptor (Homo sapiens, UniProt P34972), molecule O=C(NN1CC2CCCC2C1)c1nn(-c2ccc(Cl)cc2Cl)c2c1COC/C2=C\c1cccs1 (stereo not shown) , inhibition at 0.2 µM = 16

Log: Cannabinoid CB2 Receptor (Homo sapiens, UniProt P34972), molecule O=C(NN1CCCCCC1)c1nn(-c2ccc(Cl)cc2Cl)c2c1COC/C2=C\c1ccc(Cl)s1 , inhibition at 0.2 µM = 10

Log: Cannabinoid CB2 Receptor (Homo sapiens, UniProt P34972), molecule O=C(c1nn(-c2ccc(Cl)cc2)c2c1COC/C2=C\c1ccc(F)cc1)N1CCC[C@H]1CO , inhibition at 0.2 µM = 13

Log: Cannabinoid CB2 Receptor (Homo sapiens, UniProt P34972), molecule C[C@@H](NC(=O)c1nn(-c2ccc(Cl)cc2)c2c1COC/C2=C\c1ccc(F)cc1)C1CCCCC1 , inhibition at 0.2 µM = 25

Log: Cannabinoid CB2 Receptor (Homo sapiens, UniProt P34972), molecule C[C@@H](NC(=O)c1nn(-c2ccc(Cl)cc2Cl)c2c1COC/C2=C\c1ccc(Cl)s1)C1CCCCC1 , inhibition at 0.2 µM = 21

Log: Cannabinoid CB2 Receptor (Homo sapiens, UniProt P34972), molecule COC[C@H]1CCCN1NC(=O)c1nn(-c2ccc(Cl)cc2Cl)c2c1COC/C2=C\c1ccc(Cl)s1 , inhibition at 0.2 µM = 12

Log: Cannabinoid CB2 Receptor (Homo sapiens, UniProt P34972), molecule O=C(N[C@@H]1CCC[C@H]1O)c1nn(-c2ccc(Cl)cc2Cl)c2c1COC/C2=C\c1ccc(F)cc1 , inhibition at 0.2 µM = 0

Log: Cannabinoid CB2 Receptor (Homo sapiens, UniProt P34972), molecule O=C(NN1CCCC1)c1nn(-c2ccc(Cl)cc2Cl)c2c1COC/C2=C\c1ccc(Cl)o1 , inhibition at 0.2 µM = 8

Log: Cannabinoid CB2 Receptor (Homo sapiens, UniProt P34972), molecule O=C(NCc1ccccn1)c1nn(-c2ccc(Cl)cc2Cl)c2c1COC/C2=C\c1ccc(F)cc1 , inhibition at 0.2 µM = 25

Log: Cannabinoid CB2 Receptor (Homo sapiens, UniProt P34972), molecule O=C(c1nn(-c2ccc(Cl)cc2Cl)c2c1COC/C2=C\c1ccc(F)cc1)N1CCCCC1 , inhibition at 0.2 µM = 7

Log: Cannabinoid CB2 Receptor (Homo sapiens, UniProt P34972), molecule COC[C@H]1CCCN1NC(=O)c1nn(-c2ccc(Cl)cc2Cl)c2c1COC/C2=C\c1ccc(F)cc1 , inhibition at 0.2 µM = 15

Log: Cannabinoid CB2 Receptor (Homo sapiens, UniProt P34972), molecule C[C@@H](NC(=O)c1nn(-c2ccc(Cl)cc2Cl)c2c1COC/C2=C\c1ccc(Cl)o1)c1ccccn1 , inhibition at 0.2 µM = 10

---

Molecular target: Cannabinoid CB1 Receptor (Homo sapiens)
Construct: expressed in transfected cells; semi-purified membrane pellet
Test: Binding assay, cannabinoid CB1 receptor ([3H]-CP-55,940 displacement, SK-N-MC cell membranes)
Conditions: test concentration of 0.2 μM; human CB1 in SK-N-MC membranes; read-out: Cannabinoid CB1 Receptor Binding, percent inhibition
Label rule, in plain words: inhibition at 0.2 µM of 50% and up is t, under 50% is f.

(Q) Identify whether the reported inhibition at 0.2 µM of the following compound is 50% or greater: O=C(c1nn(-c2ccc(Cl)cc2)c2c1COC/C2=C\c1ccc(F)cc1)N1CCC[C@@H]1CO
(A) f

(Q) Identify whether the reported inhibition at 0.2 µM of the following compound is 50% or greater: O=C(N[C@@H]1CCC[C@H]1O)c1nn(-c2ccc(Cl)cc2Cl)c2c1COC/C2=C\c1ccc(F)cc1
(A) f

(Q) Identify whether the reported inhibition at 0.2 µM of the following compound is 50% or greater: C[C@H](NC(=O)c1nn(-c2ccc(Cl)cc2Cl)c2c1COC/C2=C\c1ccc(Cl)o1)c1ccccc1
(A) f

(Q) Identify whether the reported inhibition at 0.2 µM of the following compound is 50% or greater: CN1CCN(NC(=O)c2nn(-c3ccc(Cl)cc3Cl)c3c2COC/C3=C\c2ccc(F)cc2)CC1
(A) f

(Q) Identify whether the reported inhibition at 0.2 µM of the following compound is 50% or greater: O=C(NN1CCCCCC1)c1nn(-c2ccc(Cl)cc2Cl)c2c1COC/C2=C\c1ccc(Cl)o1
(A) t

(Q) Identify whether the reported inhibition at 0.2 µM of the following compound is 50% or greater: O=C(NN1CCCC1)c1nn(-c2ccc(Cl)cc2Cl)c2c1COC/C2=C\c1ccsc1
(A) t

---

Provide the reported inhibition at 0.2 µM of each item.
Biological target: Cannabinoid CB1 Receptor (Homo sapiens, UniProt P21554)
Construct: expressed in transfected cells; semi-purified membrane pellet
Sequence (P21554 whole entry): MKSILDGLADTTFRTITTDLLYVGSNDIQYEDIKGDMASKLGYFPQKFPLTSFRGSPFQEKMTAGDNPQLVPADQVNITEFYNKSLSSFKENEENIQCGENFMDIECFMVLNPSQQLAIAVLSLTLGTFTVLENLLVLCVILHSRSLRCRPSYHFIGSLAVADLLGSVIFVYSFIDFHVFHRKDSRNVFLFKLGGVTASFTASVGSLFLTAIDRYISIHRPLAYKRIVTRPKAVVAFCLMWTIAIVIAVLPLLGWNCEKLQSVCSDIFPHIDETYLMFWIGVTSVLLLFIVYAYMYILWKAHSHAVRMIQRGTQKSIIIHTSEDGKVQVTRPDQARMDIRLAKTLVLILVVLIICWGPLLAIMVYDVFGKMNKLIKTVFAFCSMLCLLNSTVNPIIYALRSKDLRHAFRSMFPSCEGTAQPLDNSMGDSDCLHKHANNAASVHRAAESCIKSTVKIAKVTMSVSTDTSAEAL
Assay: Binding assay, cannabinoid CB1 receptor ([3H]-CP-55,940 displacement, SK-N-MC cell membranes)
Conditions: test concentration of 0.2 μM; human CB1 in SK-N-MC membranes; read-out: Cannabinoid CB1 Receptor Binding, percent inhibition
Answer with a number only, understood to be in %.

// field: inhibition at 0.2 µM; key: O=C(N[C@@H]1c2ccccc2C[C@@H]1O)c1nn(-c2ccc(Cl)cc2Cl)c2c1COC/C2=C\c1ccc(F)cc1 [Cpd 5] ; value = 82

// field: inhibition at 0.2 µM; key: O=C(NN1CCCCCC1)c1nn(-c2ccc(Cl)cc2Cl)c2c1COC/C2=C\c1ccc(Cl)s1 [Cpd 53] ; value = 83

// field: inhibition at 0.2 µM; key: O=C(NN1CC2CCCC2C1)c1nn(-c2ccc(Cl)cc2Cl)c2c1COCC2Cc1ccc(F)cc1 (stereo not shown) [Cpd 22] ; value = 66

// field: inhibition at 0.2 µM; key: O=C(c1nn(-c2ccc(Cl)cc2Cl)c2c1COC/C2=C\c1ccc(F)cc1)N1CCC[C@H]1CO [Cpd 21] ; value = 59

// field: inhibition at 0.2 µM; key: C[C@@H](NC(=O)c1nn(-c2ccc(Cl)cc2Cl)c2c1COC/C2=C\c1ccc(F)cc1)c1ccccc1 [Cpd 2] ; value = 87

// field: inhibition at 0.2 µM; key: CC1CCCC(C)N1NC(=O)c1nn(-c2ccc(Cl)cc2Cl)c2c1COC/C2=C\c1ccc(Cl)o1 (stereo not shown) [Cpd 68] ; value = 38

// field: inhibition at 0.2 µM; key: C[C@@H](NC(=O)c1nn(-c2ccc(Cl)cc2Cl)c2c1COC/C2=C\c1ccc(Cl)s1)c1ccccn1 [Cpd 61] ; value = 84

// field: inhibition at 0.2 µM; key: O=C(NNC1CCCCC1)c1nn(-c2ccc(Cl)cc2Cl)c2c1COC/C2=C\c1ccc(F)cc1 [Cpd 29] ; value = 52

// field: inhibition at 0.2 µM; key: C[C@H](NC(=O)c1nn(-c2ccc(Cl)cc2Cl)c2c1COC/C2=C\c1ccc(F)cc1)c1ccccc1 [Cpd 1] ; value = 54

// field: inhibition at 0.2 µM; key: O=C(NN1CC2CCCC2C1)c1nn(-c2ccc(Cl)cc2)c2c1COC/C2=C\c1ccc(F)cc1 (stereo not shown) [Cpd 15] ; value = 81

// field: inhibition at 0.2 µM; key: COC[C@H]1CCCN1NC(=O)c1nn(-c2ccc(Cl)cc2Cl)c2c1COC/C2=C\c1ccc(Cl)s1 [Cpd 74] ; value = 65

// field: inhibition at 0.2 µM; key: O=C(N[C@H](CO)c1ccccc1)c1nn(-c2ccc(Cl)cc2Cl)c2c1COC/C2=C\c1ccc(Cl)s1 [Cpd 58] ; value = 59

// field: inhibition at 0.2 µM; key: O=C(NN1CCCCC1)c1nn(-c2ccc(Cl)cc2Cl)c2c1COC/C2=C\c1ccc(Cl)o1 [Cpd 64] ; value = 62

// field: inhibition at 0.2 µM; key: O=C(N[C@H]1c2ccccc2C[C@H]1O)c1nn(-c2ccc(Cl)cc2Cl)c2c1COC/C2=C\c1ccc(F)cc1 [Cpd 4] ; value = 64

// field: inhibition at 0.2 µM; key: CC(NC(=O)c1nn(-c2ccc(Cl)cc2Cl)c2c1COC/C2=C\c1ccc(Cl)s1)c1ccccn1 (stereo not shown) [Cpd 60] ; value = 58

// field: inhibition at 0.2 µM; key: CC(NC(=O)c1nn(-c2ccc(Cl)cc2Cl)c2c1COC/C2=C\c1ccc(Cl)o1)c1ccccn1 (stereo not shown) [Cpd 67] ; value = 40
